Reference for the values: the RNAGym collection of RNA variant scans (doi:10.1038/nmeth.2970)

B1: NELF-E aptamer (parent)
chain: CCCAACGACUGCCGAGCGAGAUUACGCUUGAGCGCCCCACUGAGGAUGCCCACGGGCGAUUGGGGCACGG

Variants of: B1
experiment_summary: HiTS-RAP
applied_conditions: with NELF-E (Drosophila)
Lab note: compare Kd with 6 nM, writing class 1 if less and class 0 if equal or more.

Kd under 6 nM? Item: C6G C17G class 1

Given A4G C27A , is recorded Kd strictly lower than 6 nM? class 1

I wonder whether A8G U47A has Kd below 6 nM. Can you tell? class 0

Report whether reported Kd is lower than 6 nM (strictly) for A4G A24U class 0

A record lists U10G A24C . Is its Kd below 6 nM? class 1

API: query returns whether the variant falls strictly under 6 nM in Kd. Query: G11U G62A class 0

Lab log: compare recorded Kd with 6 nM; is it strictly lower for A4G C9A ? class 0

Determine if G11U G54A shows Kd strictly lower than 6 nM. class 0

Is the reported Kd for A4U G64A strictly below 6 nM? class 0

# strict comparison: is reported Kd < 6 nM? input = A19G G63A class 0

Check if Kd falls below 6 nM for U22G G63C . class 0

Given the entry G7U C17G , would its reported Kd be below 6 nM? class 0

Field: below-cutoff. Rule: recorded Kd strictly less than 6 nM. Subject: C17G G30A class 1

Quick check: does G14A A39G have Kd under 6 nM? class 0

# strict comparison: is reported Kd < 6 nM? input = U10G C17U class 1

Dear reviewer, please state whether A8G U23G has Kd strictly beneath 6 nM. class 1

# TODO verify Kd < 6 nM strictly for this variant: C6G G11A class 0

Please state whether Kd is below 6 nM for C9G G42A class 0

Problem: For the variant C17G U22C , is Kd under 6 nM? class 1

Please let me know if U10G G30A shows Kd below 6 nM. class 1

Hello, is Kd of the following variant strictly smaller than 6 nM? C9G A67U class 0

Below 6 nM on Kd? Entry C6U G20U class 0

# check: Kd < 6 nM for C40G class 1

Could you please tell me whether Kd recorded for C35U is less than 6 nM? class 0

Criterion: Kd strictly below 6 nM. Is it met by U10G A43G ? class 0

Take the variant C12G A67G and say whether its Kd is less than 6 nM. class 0

API: query returns whether the variant falls strictly under 6 nM in Kd. Query: G7U U41A class 0

Please determine if U29G A43G is below 6 nM in terms of Kd. class 0

Hello, is Kd of the following variant strictly smaller than 6 nM? G11U A19U class 0

Lab note: Kd threshold 6 nM. Does this variant come in strictly under it? U23G C27U class 1

Answer whether the variant G14U A31G has Kd strictly less than 6 nM class 0

I'd appreciate it if you could check whether A4G U61G has Kd smaller than 6 nM. class 0

Here's an entry: C9G C25U . Is its Kd below 6 nM? class 0

In the record for U47A , is Kd less than 6 nM? class 0

Hello, I'm reviewing records and need to know if Kd of C9G G30A is below 6 nM. Could you check? class 1

Please indicate whether the reported Kd of A5G C40U is strictly below 6 nM. class 0

Could you please tell me whether Kd recorded for A4G U47G is less than 6 nM? class 0

Does this variant meet the criterion Kd < 6 nM? G7U C35U class 0
